All values here come from ChEMBL document CHEMBL3407383.

method_summary: Cytotoxicity against human HL60 cells assessed as effect on cell cycle at 10 uM
Format: cell-based
recorded_conditions: hl-60, 10 µM
readout_name: Activity

Annotate the compound `CN1CCN(CC#CCN2C(=O)[C@@H]3[C@H]4c5ccccc5[C@H](c5ccccc54)[C@@H]3C2=O)CC1` with its measured Activity.
Non-toxic

Annotate the compound `O=C1[C@@H]2[C@H]3c4ccccc4[C@H](c4ccccc43)[C@@H]2C(=O)N1CC#CCN1CCN(Cc2ccccc2)CC1` with its measured Activity.
Non-toxic

Annotate the compound `O=C1[C@@H]2[C@H]3c4ccccc4[C@H](c4ccccc43)[C@@H]2C(=O)N1CC#CCN1CCN(C(c2ccc(F)cc2)c2ccc(F)cc2)CC1` with its measured Activity.
Non-toxic
